Source: patent US20240239788A1

Target: KRAS protein containing G12D mutation (Homo sapiens (Human), UniProt P01116, G12D)
Sequence (P01116 other isoform, or with tags, fused parts or gaps G12D (already in the parent)): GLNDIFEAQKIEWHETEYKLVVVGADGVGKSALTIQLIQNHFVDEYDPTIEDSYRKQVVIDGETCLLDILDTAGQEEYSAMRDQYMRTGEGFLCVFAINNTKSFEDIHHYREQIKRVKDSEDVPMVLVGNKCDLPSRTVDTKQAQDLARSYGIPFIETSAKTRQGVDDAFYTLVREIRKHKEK
Assay: SOS-catalyzed nucleotide exchange assay (GNE), TR-FRET
Format: biochemical
Details: biotinylated KRAS G12D, SOS and GTP, 60-minute incubation
Procedure: Compounds are added to this complex and then after a 60-minute incubation time the mixture is treated with SOS and unlabeled GTP. Small molecule inhibitors stabilize the Bodipy-GDP complex whereas the untreated protein rapidly exchanges Bodipy-GDP for unlabeled GTP resulting in reduced TR-FRET signal. This solution is referred to as biotinylated KRAS G12D stock solution.
Measured IC50 of individual entries

[
  {
    "molecule": "C[C@]12CCC(CN(c3nc(OCC45CCCN4CC(F)C5)nc4c(F)c(-c5nc(N)cc6cccc(Cl)c56)c(F)cc34)C1)N2 (stereo in doubt)",
    "IC50": "188 nM"
  },
  {
    "molecule": "COC1CC2CN(c3nc(OCC4(CN(C)C)CC4)nc4c(F)c(-c5cc(O)cc6ccccc56)c(Cl)cc34)CC1N2 (stereo not drawn)",
    "IC50": "358 nM"
  },
  {
    "molecule": "C=C[C@H]1[C@@H]2CC[C@@H](CN2)N1c1nc(OCC2(CN(C)C)CC2)nc2c(F)c(-c3cc(O)cc4ccccc34)c(F)cc12",
    "IC50": "159 nM"
  }
]
